- measurement-target: ATP-dependent translocase ABCB1 (Homo sapiens, UniProt P08183)
- Sequence (P08183 whole entry): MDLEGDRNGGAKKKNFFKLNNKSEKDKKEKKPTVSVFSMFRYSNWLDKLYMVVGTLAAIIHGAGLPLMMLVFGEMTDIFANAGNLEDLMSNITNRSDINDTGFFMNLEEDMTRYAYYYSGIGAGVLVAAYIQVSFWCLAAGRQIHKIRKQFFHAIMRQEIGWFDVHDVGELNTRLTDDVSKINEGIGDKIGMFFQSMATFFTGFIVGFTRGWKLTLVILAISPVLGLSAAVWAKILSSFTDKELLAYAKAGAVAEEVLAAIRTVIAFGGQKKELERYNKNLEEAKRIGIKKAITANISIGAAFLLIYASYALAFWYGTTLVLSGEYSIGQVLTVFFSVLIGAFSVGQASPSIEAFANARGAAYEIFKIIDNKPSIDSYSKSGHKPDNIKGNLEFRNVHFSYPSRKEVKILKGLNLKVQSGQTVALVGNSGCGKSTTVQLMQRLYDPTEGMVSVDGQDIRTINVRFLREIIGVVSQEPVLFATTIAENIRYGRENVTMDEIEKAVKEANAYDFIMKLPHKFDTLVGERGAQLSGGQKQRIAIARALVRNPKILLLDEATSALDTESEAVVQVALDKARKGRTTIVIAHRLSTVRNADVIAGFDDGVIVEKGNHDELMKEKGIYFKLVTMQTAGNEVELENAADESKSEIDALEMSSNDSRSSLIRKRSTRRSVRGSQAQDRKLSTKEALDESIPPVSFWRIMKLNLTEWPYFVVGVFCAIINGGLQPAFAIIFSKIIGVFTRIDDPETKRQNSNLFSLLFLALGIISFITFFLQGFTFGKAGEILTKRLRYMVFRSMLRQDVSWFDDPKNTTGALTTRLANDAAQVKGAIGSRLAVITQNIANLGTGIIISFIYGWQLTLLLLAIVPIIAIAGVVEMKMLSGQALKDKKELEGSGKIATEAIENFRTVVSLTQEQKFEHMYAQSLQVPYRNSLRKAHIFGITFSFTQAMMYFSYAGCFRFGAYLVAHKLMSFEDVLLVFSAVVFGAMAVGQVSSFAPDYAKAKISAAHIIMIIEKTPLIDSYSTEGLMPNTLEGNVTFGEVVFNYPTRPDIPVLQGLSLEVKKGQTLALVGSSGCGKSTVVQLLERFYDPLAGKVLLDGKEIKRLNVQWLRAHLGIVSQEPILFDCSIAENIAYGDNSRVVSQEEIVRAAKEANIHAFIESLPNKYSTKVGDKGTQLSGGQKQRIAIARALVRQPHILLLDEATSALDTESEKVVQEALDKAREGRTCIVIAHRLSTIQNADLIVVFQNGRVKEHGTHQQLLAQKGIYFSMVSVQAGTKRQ
- assay-text: Inhibition of P-glycoprotein-mediated multidrug resistance in human 2780AD cells assessed as calcein accumulation at 0.25 ug/mL relative to control
- Format: cell-based
- Set-up: scale not given: the % may be the effect or the level left
- recorded-conditions: a2780 adr
Recorded Activity for the following compounds

compound	measurement-target	unit-text	Activity
COC(=O)[C@@]1(C)CC[C@]2(C(=O)O[C@@H]3O[C@H](CO)[C@@H](O)[C@H](O)[C@H]3O)CC[C@]3(C)C(=C[C@@H](O)[C@@H]4[C@@]5(C)C[C@H](O)[C@H](O[C@@H]6OC[C@@H](O[C@@H]7O[C@H](CO)[C@@H](O)[C@H](O)[C@H]7O)[C@H](O)[C@H]6O)[C@@](C)(CO)[C@@H]5CC[C@]43C)[C@@H]2C1	ATP-dependent translocase ABCB1 (Homo sapiens, UniProt P08183)	%	121
COC(=O)[C@@]1(C)CC[C@]2(C(=O)O[C@@H]3O[C@H](CO)[C@@H](O)[C@H](O)[C@H]3O)CC[C@]3(C)C(=CC[C@@H]4[C@@]5(C)CC[C@H](O[C@@H]6OC[C@@H](OC7O[C@H](CO)[C@@H](O)[C@H](O)[C@H]7O)[C@H](O)[C@H]6O)[C@@](C)(CO)[C@@H]5CC[C@]43C)[C@@H]2C1 (some centres not stated)	ATP-dependent translocase ABCB1 (Homo sapiens, UniProt P08183)	%	124
COC(=O)[C@@]1(C)CC[C@]2(C(=O)O)CC[C@]3(C)C(=CC[C@@H]4[C@@]5(C)C[C@H](O)[C@H](O[C@@H]6OC[C@@H](O)[C@H](O)[C@H]6O)[C@@](C)(CO)[C@@H]5CC[C@]43C)[C@@H]2C1 [PHYTOLACCOSIDE B]	ATP-dependent translocase ABCB1 (Homo sapiens, UniProt P08183)	%	128
COC(=O)[C@@]1(C)CC[C@]2(C(=O)O[C@@H]3O[C@H](CO)[C@@H](O)[C@H](O)[C@H]3O)CC[C@]3(C)C(=CC(=O)[C@@H]4[C@@]5(C)C[C@H](O)[C@H](O[C@@H]6OC[C@@H](OC7O[C@H](CO)[C@@H](O)[C@H](O)[C@H]7O)[C@H](O)[C@H]6O)[C@@](C)(CO)[C@@H]5CC[C@]43C)[C@@H]2C1 (some centres not stated)	ATP-dependent translocase ABCB1 (Homo sapiens, UniProt P08183)	%	119
COC(=O)[C@@]1(C)CC[C@]2(C(=O)O[C@@H]3O[C@H](CO)[C@@H](O)[C@H](O)[C@H]3O)CC[C@]3(C)C(=CC[C@@H]4[C@@]5(C)CC[C@H](O[C@@H]6OC[C@@H](O)[C@H](O[C@@H]7OC[C@@H](O)[C@H](O)[C@H]7O[C@@H]7O[C@H](CO)[C@@H](O)[C@H](O)[C@H]7O[C@@H]7O[C@@H](C)[C@H](O)[C@@H](O)[C@H]7O)[C@H]6O)[C@@](C)(CO)[C@@H]5CC[C@]43C)[C@@H]2C1	ATP-dependent translocase ABCB1 (Homo sapiens, UniProt P08183)	%	93
COC(=O)[C@@]1(C)CC[C@]2(C(=O)O[C@@H]3O[C@H](CO)[C@@H](O)[C@H](O)[C@H]3O)CC[C@]3(C)C(=CC[C@@H]4[C@@]5(C)C[C@H](O)[C@H](O[C@@H]6OC[C@@H](OC7O[C@H](CO)[C@@H](O)[C@H](O)[C@H]7O)[C@H](O)[C@H]6O)[C@@](C)(CO)[C@@H]5CC[C@]43C)[C@@H]2C1 (some centres not stated)	ATP-dependent translocase ABCB1 (Homo sapiens, UniProt P08183)	%	124
COC(=O)[C@@]1(C)CC[C@]2(C(=O)O)CC[C@]3(C)C(=C[C@@H](OC)[C@@H]4[C@@]5(C)C[C@H](O)[C@H](O[C@@H]6OC[C@@H](O[C@@H]7O[C@H](CO)[C@@H](O)[C@H](O)[C@H]7O)[C@H](O)[C@H]6O)[C@@](C)(CO)[C@@H]5CC[C@]43C)[C@@H]2C1	ATP-dependent translocase ABCB1 (Homo sapiens, UniProt P08183)	%	118
COC(=O)[C@@]1(C)CC[C@]2(C(=O)O[C@@H]3O[C@H](CO)[C@@H](O)[C@H](O)[C@H]3O)CC[C@]3(C)C(=CC[C@@H]4[C@@]5(C)CC(=O)[C@H](O[C@@H]6OC[C@@H](O[C@@H]7O[C@H](CO)[C@@H](O)[C@H](O)[C@H]7O)[C@H](O)[C@H]6O)[C@@](C)(CO)[C@@H]5CC[C@]43C)[C@@H]2C1	ATP-dependent translocase ABCB1 (Homo sapiens, UniProt P08183)	%	98
COC(=O)[C@@]1(C)CC[C@]2(C(=O)O)CC[C@]3(C)C(=CC[C@@H]4[C@@]5(C)C[C@H](O)[C@H](O[C@@H]6OC[C@@H](OC7O[C@H](CO)[C@@H](O)[C@H](O)[C@H]7O)[C@H](O)[C@H]6O)[C@@](C)(CO)[C@@H]5CC[C@]43C)[C@@H]2C1 (some centres not stated)	ATP-dependent translocase ABCB1 (Homo sapiens, UniProt P08183)	%	111
COC(=O)[C@@]1(C)CC[C@]2(C(=O)O[C@@H]3O[C@H](CO)[C@@H](O)[C@H](O)[C@H]3O)CC[C@]3(C)C(=CC[C@@H]4[C@@]5(C)CC[C@H](O[C@@H]6OC[C@@H](O[C@@H]7O[C@H](CO)[C@@H](O)[C@H](O)[C@H]7O)[C@H](O)[C@H]6O[C@@H]6O[C@H](CO)[C@@H](O)[C@H](O)[C@H]6O)[C@@](C)(CO)[C@@H]5CC[C@]43C)[C@@H]2C1	ATP-dependent translocase ABCB1 (Homo sapiens, UniProt P08183)	%	126
COC(=O)[C@@]1(C)CC[C@]2(C(=O)O[C@@H]3O[C@H](CO)[C@@H](O)[C@H](O)[C@H]3O)CC[C@]3(C)C(=CC[C@@H]4[C@@]5(C)C[C@H](O)[C@H](O[C@@H]6OC[C@@H](O)[C@H](O)[C@H]6O)[C@@](C)(CO)[C@@H]5CC[C@]43C)[C@@H]2C1	ATP-dependent translocase ABCB1 (Homo sapiens, UniProt P08183)	%	141
COC(=O)[C@@]1(C)CC[C@]2(C(=O)O[C@@H]3O[C@H](CO)[C@@H](O)[C@H](O)[C@H]3O)CC[C@]3(C)C(=C[C@@H](OC)[C@@H]4[C@@]5(C)C[C@H](O)[C@H](O[C@@H]6OC[C@@H](O[C@@H]7O[C@H](CO)[C@@H](O)[C@H](O)[C@H]7O)[C@H](O)[C@H]6O)[C@@](C)(CO)[C@@H]5CC[C@]43C)[C@@H]2C1	ATP-dependent translocase ABCB1 (Homo sapiens, UniProt P08183)	%	105

Source: ChEMBL document CHEMBL1144721
